// GI50 collected for HCT-15
parameter: GI50 (µM)

* Cn1cc2c3ccccc3nc-2c2ccccc21 [ISOCRYPTOLEPINE] | 1.97
* CC(=O)O[C@H]1C[C@H]2[C@@H]([C@H](OC(C)=O)C[C@@H]3CC4(CC[C@@]32C)OOC2(CCCCC2)OO4)[C@@H]2CC[C@H]([C@H](C)CCC(=O)O)[C@@]12C | 4.39
* O=c1n(CC2CS2)c2ccccc2n1CC1CS1 (stereo not given) | 42.7
* CCN(CC)CC[n+]1ccc2c(C)c3[nH]c4ccc(O)cc4c3c(C)c2c1 | 18.7
* COc1cc2c(cc1O)CCN[C@@]21CS[C@H]2c3c(OC(C)=O)c(C)c4c(c3C(COC1=O)N1C2C2c3c(cc(C)c(OC)c3O)CC([C@@H]1O)N2C)OCO4 (stereo not given in full) | 0.0001
* S=c1[nH]c2c(Cl)c(Cl)c(Cl)c(Cl)c2[nH]1 | 22

###

Tested on: DU-145
assay remarks: NCI tumour cell line growth inhibition, 48 h
Activity calls are given as the source filed them. Cut-off read from the data, not from the text of the source: active = GI50 up to about 1.1 µM and inactive = higher. Residues, ends and D or L forms follow the SMILES beside them. *: point of attachment. Boc = CC(C)(C)OC(=O)*
parameter: GI50

• C=C1[C@H](OC(C)=O)[C@H]2[C@@H](OC(C)=O)[C@@H](C)C[C@]2(C)C(=O)[C@H](C)/C=C/C(C)(C)C(=O)[C@H](OCC(C)C)[C@H]1OC(C)=O = > 25 µM (inactive)
• COc1c(O)c(OC)c(C(=O)/C=C/c2ccccc2)c(O)c1OC [PEDICIN] = 29.1 µM (inactive)
• CC[C@H](C)[C@H]1NC(=O)[C@@H](NC(=O)[C@@H](CC(C)C)N(C)C(=O)C2CCCN2C(=O)[C@H](C)O)[C@@H](C)OC(=O)[C@H](Cc2ccc(OC)cc2)N(C)C(=O)[C@@H]2CCCN2C(=O)[C@H](CCCCNC(=O)OCc2ccccc2)NC(=O)[C@H](C)C(=O)[C@H](C(C)C)OC(=O)C[C@@H]1O (some centres not stated) = 9.84 µM (inactive)
• CCOc1cc(C2SCC(=O)N2c2ccc(Oc3ccc(Cl)cc3)c(Cl)c2)ccc1O (configuration not stated) = 16.6 µM (inactive)
• COc1ccc(C(C#N)NC23CC4CC(CC(C4)C2)C3)cc1 (configuration not stated) = > 100 µM (inactive)
• COc1nc(C#CCC(C)O)nc(OC)n1 (configuration not stated) = 22.9 µM (inactive)
• O=C(O)c1cccc(/C=C/c2ccccc2)c1 = 3.08 µM (inactive)
• CC(/C=C/C=C\C=C\C=C(/C)C(=O)NC(C)CO)=C\C(C)C(O)/C(C)=C/C(C)CCc1ccccc1 (configuration not stated) = 13.8 µM (inactive)
• [N-]=[N+]=Nc1cc(=O)[nH]nc1-c1ccccc1 = > 100 µM (inactive)
• CCOC(=O)c1nc2ccc(C(F)(F)F)cc2nc1NCc1cc(OC)c(OC)c(OC)c1 = 66.5 µM (inactive)
• CO[C@@H]1C[C@H](OC(N)=O)[C@@H]2C=C[C@@H]3/C=C(C)/C=C/[C@@H](C)[C@H]([C@H](C)[C@H](O)[C@@H](C)NC(C)=O)OC(=O)/C=C/C=C(C)\C=C\[C@]3(C)[C@@H]2C1 = < 0.01 µM (active)
• Cc1nc(Nc2nc3ccccc3[nH]2)nc(Cl)c1CCCl = > 100 µM (inactive)
• O=C(CC(C(=O)c1ccco1)c1ccco1)c1ccco1 (configuration not stated) = > 100 µM (inactive)
• CCOC(=O)c1[nH]cc(C)c1-c1cccn1-c1ccc(Cl)cc1[N+](=O)[O-] = 35.1 µM (inactive)
• COC(=O)C(CCC1C=CN(S(=O)(=O)c2ccc(C)cc2)C1)/N=C/c1ccccc1 (configuration not stated) = 43 µM (inactive)
• CCOC(=O)/C(C#N)=C1\c2c([nH]c(=S)[nH]c2=O)Oc2ccc3ccccc3c21 = 78.9 µM (inactive)
• Nc1c(C(=O)O)nnc2cc(Cl)c(Cl)cc12 = > 100 µM (inactive)
• CC(C)(C)OC(=O)NC(Cc1ccc(O)cc1)C(=O)NC(CCCCN)C(=O)O (stereo not drawn) (Boc-Tyr-Lys-OH; configuration not given here) = 27 µM (inactive)
• COc1ccc(-n2sc3ncccc3c2=O)cc1 = 39.4 µM (inactive)
• O=C(O)COc1cccc2ccccc(=O)c12 = > 100 µM (inactive)
• CCOC(=O)CCC1(C(=O)O[C@@H]2C[C@H](C)CC[C@H]2C(C)C)CCCCC1=O (some centres not stated) = > 100 µM (inactive)
• Cn1cc2c3ccccc3nc-2c2ccccc21 [ISOCRYPTOLEPINE] = 2.31 µM (inactive)
• C/C(=N\N=C(\N)OB(F)F)c1ccccn1 = > 100 µM (inactive)
• CSC1=NN=C(SC)NN1 = 0.202 µM (active)
• CCOC(=O)/C=C(/C(=O)OCC)n1cnc2c(=O)[nH]c(NC(C)=O)nc21 = > 100 µM (inactive)
• CC(=O)OC1CC2(C)C(OC(C)=O)CC1C2(C)C (configuration not stated) = > 100 µM (inactive)
• CS(=O)(=O)N(CC(=O)O)Cc1ccccc1 = > 100 µM (inactive)
• COc1ccc(N2C(=O)C3c4[nH]c5cccc(Cl)c5c4C4CCC(C(C)(C)C)CC4C3C2=O)cc1 (configuration not stated) = > 100 µM (inactive)
• O=C1/C(=C/c2ccc(Cl)c(Cl)c2)CN(C(=O)CCN2CCOCC2)C/C1=C\c1ccc(Cl)c(Cl)c1 = 0.0373 µM (active)
• CCC(CCCN)Nc1cc(OC)cc2c(C)ccnc12 (configuration not stated) = 17.5 µM (inactive)
• CCCCCCCCCCCCCCCCCCN(C)C(COC)COP(=O)([O-])OCC[N+](C)(C)C (configuration not stated) = 10.1 µM (inactive)
• COC(=O)CC1(O)C=CC(=O)C=C1 [JACARANONE] = 5.06 µM (inactive)
• COc1ccccc1NC(=O)CC(=O)n1nc(C)c(/N=N/c2ccccc2Cl)c1C = > 100 µM (inactive)
• COc1ccc(-n2c(Cn3nnc(-c4cccnc4)n3)nn(C3OC(COC(=O)c4ccccc4)C(OC(=O)c4ccccc4)C3OC(=O)c3ccccc3)c2=S)cc1 (configuration not stated) = > 100 µM (inactive)
• COc1ccc(C2SCC(=O)N2c2ccc(-c3ccc(-n4c(-c5ccccc5)nc5ccccc5c4=O)cc3)cc2)cc1 (configuration not stated) = 42 µM (inactive)
• C/C=C/C=C/c1cc2cc3c(c(O)c2c(=O)[nH]1)C1(CC3)C(=O)c2c(O)c3c(c(O)c2C1=O)C(=O)C(OC)=CC3=O (configuration not stated) = 0.378 µM (active)
• CCN1CCC(O)(C(C(=O)O)c2ccccc2)CC1 (configuration not stated) = > 100 µM (inactive)

// provenance: ChEMBL document CHEMBL1201862
